Quick reference: EC50 of the listed items.
- TARGET DESC: T1, SARS-COV-2 RBD (SARS-COV-2, UniProt P0DTC2 319-539)
- T1 construct: also called WT RBD
- ASSAY COMMENT: ELISA, RBD coated on plate
Could you give me the number in ng/mL? Just the number is fine.

Read the entry C1058 (antibody, V domains shown) VH: EVQLVESGGGLVQPGGSLRLSCAASGIIVSSNYMNWVRQVPGKGLEWVSVLYSGGSTFYADSVRGRFTISRDNSKNTLFLQMNSLRPEDTAVYYCARDFREGAFDIWGQGTMVTV VL: DIQLTQSPSFLSASVGDRVTITCRASQGISSYLAWYQQKPGKAPNLLIYAASTLQSGVPSRFSGSGSGTDFTLTISSLQPEDFATYYCQQLNSYSPLFGQGTRLEIK and write its reported EC50.
2.13

Read the entry C1059 (antibody, V domains shown) VH: EVQLVESGGGLVQPGGSLRLSCAASGVTVSYNYMHWVRQAPGKGLEWVSVFFPGGSIFYADSVKGRFSISRDNSHNTLYLQMNNLRPEDTAVYYCARDFREGAIDLWGQGTMVTVSS VL: DIQLTQSPSFLSASVEDRVTITCRASQGISSYLAWYQQKPGKAPKLLIYGASTLQSGVPSRFSGSGSGTEFTLTISSLQPEDSATYYCQQLNSYPPLFGQGTRLEIK and write its reported EC50.
2.17
